Origin of the recorded values: PubChem BioAssay AID1159580

Please provide measured normalized growth for the entries that follow.
Assay: chemical genetic growth profiling, strain panel (AID 1159580);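 also: tested at 20 µM; growth read once vehicle control cultures reached saturation at 30 °C; 1 = growth at the plate median or of vehicle wells; lower values mean less growth of the strain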
Settings: S. cerevisiae deletion strains, growth OD, locus YML124C, strain tub3, hits give low values
Out of some 5,500 compounds screened, about 2,000 (36%) were called active. Another 18% or so got no clear call; they are omitted. This is one part of the list.

Exam item: Given C=CCc1ccccc1OCC(O)CNC(C)C (centres undefined) , state its recorded normalized growth.
Marked response: 1.01 (inactive)

Exam item: Given `Cc1cc(=O)c2c(o1)-c1c(cc(O)c(O)c1C(=O)O)OC2` , state its recorded normalized growth.
Marked response: 1.01 (inactive)

Exam item: Given `COC(=O)C1=C(C)NC(C)=C(C(=O)OC)C1c1ccccc1[N+](=O)[O-]` , state its recorded normalized growth.
Marked response: 0.972 (inactive)

Exam item: Given `CCCCC1C(=O)N(c2ccccc2)N(c2ccccc2)C1=O` , state its recorded normalized growth.
Marked response: 0.982 (inactive)

Exam item: Given `CCCCCCCCCc1ccc(O)cc1` , state its recorded normalized growth.
Marked response: 0.908 (active)

Exam item: Given `NC(=O)CC[C@@H](N)C(=O)O` , state its recorded normalized growth.
Marked response: 1.01 (inactive)

Exam item: Given `CN(N=O)C(=O)N[C@@H]1[C@@H](O)[C@H](O)[C@@H](CO)O[C@@H]1O` , state its recorded normalized growth.
Marked response: 1 (inactive)

Exam item: Given `Cc1cc(=O)c2c(O)c3c(cc2o1)OC(C)(C)CC3` , state its recorded normalized growth.
Marked response: 0.971 (inactive)

Exam item: Given `COc1ccc(-c2cc(=O)c3cc(OC)ccc3o2)cc1` , state its recorded normalized growth.
Marked response: 1.01 (inactive)

Exam item: Given `NCC(=O)CCC(=O)O` , state its recorded normalized growth.
Marked response: 0.997 (inactive)

Exam item: Given CC(N)Cc1ccc(O)cc1 (centres undefined) , state its recorded normalized growth.
Marked response: 1.01 (inactive)

Exam item: Given `COc1ccc(C(=O)/C=C/c2ccccc2)cc1` , state its recorded normalized growth.
Marked response: 0.958 (inactive)

Exam item: Given C=CCCCCCCCCCCCC(O)CC(O)CO (centres undefined) (tested in a mixture with another compound) , state its recorded normalized growth.
Marked response: 0.503 (active)

Exam item: Given CC(=O)[C@H]1CCC2C3CC=C4C[C@@H](O)CC[C@]4(C)C3CC[C@@]21C (some centres undefined) , state its recorded normalized growth.
Marked response: 1.04 (inactive)

----------
Assay: chemical genetic growth profiling, strain panel (AID 1159580)
Settings: S. cerevisiae deletion strains, growth OD, locus YOL006C, strain TOP1, hits give low values
In all, about 5,500 compounds went through this assay and about 2,000 (36%) were called active. Inconclusive results (about 18%) are left out. The list shows a part of the results.
VALUE_TYPE: normalized growth
// no unit string in output, number only

Exam item: Given `NCC(=O)CCC(=O)O` , state its recorded normalized growth.
Marked response: 0.983

Exam item: Given CC1NC(=O)NC1=O (stereo not drawn) , state its recorded normalized growth.
Marked response: 1

Exam item: Given CC(=O)O[C@H]1C[C@@H](O)C(C)(C)C2C[C@@H](OC(C)=O)[C@]3(C)C(CC[C@@]4(C)[C@H](c5ccoc5)OC(=O)C5OC543)[C@]21C (stereo partly drawn) , state its recorded normalized growth.
Marked response: 0.989

----------
Assay: chemical genetic growth profiling, strain panel (AID 1159580);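 also: tested at 20 µM; growth read once vehicle control cultures reached saturation at 30 °C; 1 = growth at the plate median or of vehicle wells; lower values mean less growth of the strain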
Conditions: S. cerevisiae deletion strains, growth OD, locus YMR231W, strain pep5, hits give low values
Among all 5,500 compounds or so, about 2,000 (36%) were called active. Roughly 18% stayed inconclusive and do not appear here. The list shows a part of the results.
VALUE_TYPE: normalized growth
// no unit string in output, number only

Exam item: Given `CCCCCCCCCc1ccc(O)cc1` , state its recorded normalized growth.
Marked response: 0.0903

Exam item: Given `CC(C)=CCc1c2c(c(O)c3c(=O)c(O)c(-c4ccccc4)oc13)C=CC(C)(C)O2` , state its recorded normalized growth.
Marked response: 0.533

Exam item: Given `CCN1CCN(c2cc3c(cc2F)c(=O)c(C(=O)O)cn3C2CC2)CC1` , state its recorded normalized growth.
Marked response: 1.02

----------
Please provide measured normalized growth for the entries that follow.
Assay: chemical genetic growth profiling, strain panel (AID 1159580);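 also: tested at 20 µM; growth read once vehicle control cultures reached saturation at 30 °C; 1 = growth at the plate median or of vehicle wells; lower values mean less growth of the strain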
Details: S. cerevisiae deletion strains, growth OD, locus YAR019C, strain CDC15, hits give low values
Among all 5,500 compounds or so, about 2,000 (36%) were called active. About 18% were inconclusive and are not listed. The list shows a part of the results.
// no unit string in output, number only

Exam item: Given CC(O)(CNCc1ccc(Cl)cc1)CSc1ccccc1Cl (stereo unspecified) , state its recorded normalized growth.
Marked response: 0.977

Exam item: Given `Cc1cc(C(=O)O/N=C(/N)CSc2ncccc2C(F)(F)F)no1` , state its recorded normalized growth.
Marked response: 0.997

Exam item: Given `CC(C)(C)c1cc2nc(C(F)(F)F)cc(NNC(=O)c3ccc(Cl)cc3)n2n1` , state its recorded normalized growth.
Marked response: 0.978

Exam item: Given `Cc1nc(-c2ccc(C(F)(F)F)cn2)[nH]c(=O)c1Cl` , state its recorded normalized growth.
Marked response: 0.899

Exam item: Given `Cc1csc2ncnc(N/N=C\c3ccccc3Cl)c12` , state its recorded normalized growth.
Marked response: 0.959

Exam item: Given `Clc1ccccc1N/N=C\Cc1nnnn1-c1ccccc1` , state its recorded normalized growth.
Marked response: 0.982

Exam item: Given `C#Cc1cccc(N=Cc2cc(Cl)cc(Br)c2O)c1` , state its recorded normalized growth.
Marked response: 0.101

Exam item: Given `CC(C)c1ccc(-c2cc(=O)c3ccccc3o2)cc1` , state its recorded normalized growth.
Marked response: 0.937

Exam item: Given `Cc1ccc(C(O)(c2ccccc2)c2ccccc2)c2ccccc12` , state its recorded normalized growth.
Marked response: 0.992

Exam item: Given `N#Cc1c(Br)cnn1Cc1cc(C(F)(F)F)cc(C(F)(F)F)c1` , state its recorded normalized growth.
Marked response: 0.997

Exam item: Given Cc1cc(C(=O)N(c2ccccc2)C(C)C2CC2)c(Cl)cc1Cl (stereo unspecified) , state its recorded normalized growth.
Marked response: 0.987

----------
Please provide measured normalized growth for the entries that follow.
Test: chemical genetic growth profiling, strain panel (AID 1159580);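 also: tested at 20 µM; growth read once vehicle control cultures reached saturation at 30 °C; 1 = growth at the plate median or of vehicle wells; lower values mean less growth of the strain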
Settings: S. cerevisiae deletion strains, growth OD, locus YMR205C, strain PFK2, hits give low values
Out of some 5,500 compounds screened, about 2,000 (36%) were called active. About 18% were inconclusive and are not listed. The list shows a part of the results.
// no unit string in output, number only

Exam item: Given `COc1cc2cc[n+]3cc4c(OC)c(OC)ccc4cc3c2cc1OC` , state its recorded normalized growth.
Marked response: 0.961

Exam item: Given `CCCCCCCCCCCCCCCC[n+]1ccccc1` , state its recorded normalized growth.
Marked response: 0.0777

Exam item: Given CC(C)(O)[C@@H]1CC[C@](C)([C@H]2[C@@H](O)C[C@@]3(C)C4C[C@H](O[C@@H]5O[C@H](CO)[C@@H](O)[C@H](O)[C@H]5O)C5C(C)(C)[C@@H](O[C@@H]6OC[C@@H](O)[C@H](O)[C@H]6O)CC[C@@]56C[C@@]46CC[C@]23C)O1 (some centres undefined) , state its recorded normalized growth.
Marked response: 0.976

Exam item: Given OC1C(O)C(O)C(O)C(O)C1O (centres undefined) , state its recorded normalized growth.
Marked response: 0.996

Exam item: Given `CC(C)(Oc1ccc(Cl)cc1)C(=O)O` , state its recorded normalized growth.
Marked response: 0.991

Exam item: Given `COc1cc([C@@H]2c3cc4c(cc3[C@H](O)[C@H]3COC(=O)[C@@H]23)OCO4)cc(OC)c1OC` , state its recorded normalized growth.
Marked response: 1.02

Exam item: Given CC(=O)O[C@H]1C[C@@H](O)C(C)(C)C2C[C@@H](OC(C)=O)[C@]3(C)C(CC[C@@]4(C)[C@H](c5ccoc5)OC(=O)C5OC543)[C@]21C (some centres undefined) , state its recorded normalized growth.
Marked response: 1.01

Exam item: Given C[C@@H]1CC[C@@]2(OC1)OC1C(O)C3C4CC[C@H]5C[C@H](O[C@@H]6O[C@H](CO)[C@H](O[C@@H]7O[C@H](CO)[C@@H](O)[C@H](O[C@@H]8OC[C@@H](O)[C@H](O)[C@H]8O)[C@H]7O[C@@H]7O[C@H](CO)[C@H](O)[C@H](O[C@@H]8O[C@H](CO)[C@@H](O)[C@H](O)[C@H]8O)[C@H]7O)[C@H](O)[C@H]6O)[C@H](O)C[C@]5(C)C4CC[C@]3(C)C1[C@@H]2C (some centres undefined) , state its recorded normalized growth.
Marked response: 0.977

Exam item: Given CC(=O)O[C@H]1C[C@H](O[C@H]2[C@@H](O)C[C@H](O[C@H]3[C@@H](O)C[C@H](O[C@H]4CC[C@@]5(C)C(CCC6C5C[C@@H](O)[C@]5(C)[C@@H](C7=CC(=O)OC7)CC[C@]65O)C4)O[C@@H]3C)O[C@@H]2C)O[C@H](C)[C@H]1O[C@@H]1O[C@H](CO)[C@@H](O)[C@H](O)[C@H]1O (some centres undefined) , state its recorded normalized growth.
Marked response: 0.974

Exam item: Given CC(=O)O[C@@H]1CC2C(C)(C)CCC(=O)[C@]2(C)C2CC[C@@]3(C)[C@H](c4ccoc4)OC(=O)C4OC43[C@@]21C (some centres undefined) , state its recorded normalized growth.
Marked response: 1.04

Exam item: Given `CCCCC1C(=O)N(c2ccccc2)N(c2ccccc2)C1=O` , state its recorded normalized growth.
Marked response: 0.989

Exam item: Given CCOC(=O)C1C(C=C(C)C)C1(C)C (centres undefined) , state its recorded normalized growth.
Marked response: 0.995

Exam item: Given COCCOC(=O)C1=C(C)NC(C)=C(C(=O)OC(C)C)C1c1cccc([N+](=O)[O-])c1 (centres undefined) , state its recorded normalized growth.
Marked response: 0.979

Exam item: Given `COc1cccc2c1cc([N+](=O)[O-])c1c(C(=O)O)cc3c(c12)OCO3` , state its recorded normalized growth.
Marked response: 1.05

Exam item: Given CN1CCOC(c2ccccc2)c2ccccc2C1 (centres undefined) , state its recorded normalized growth.
Marked response: 0.966

Exam item: Given `CC(=O)Oc1cc(-c2coc3cc(OC(C)=O)c(OC(C)=O)c(OC(C)=O)c3c2=O)cc(OC(C)=O)c1OC(C)=O` , state its recorded normalized growth.
Marked response: 0.896

Exam item: Given `COc1ccc(-c2cc(=O)c3c(OC)c(OC)c(OC)c(OC)c3o2)cc1` , state its recorded normalized growth.
Marked response: 0.78

Exam item: Given `N[C@H](CO)Cc1ccccc1` , state its recorded normalized growth.
Marked response: 1.02

Exam item: Given `COc1cc([C@@H]2c3cc4c(cc3[C@H](OC(C)=O)[C@H]3COC(=O)[C@H]23)OCO4)cc(OC)c1OC` , state its recorded normalized growth.
Marked response: 1.02
